In this section we review reported MIC values for a set of compounds.
# Tested on: Staphylococcus aureus
# protocol-text: Antibacterial activity against Staphylococcus aureus ATCC 25923 after 24 hrs by agar dilution method
# Type: functional
# run-parameters: ATCC 25923, 24 h

compound	assay-system	MIC, µg/mL
CC(=O)NC[C@H]1CN(c2cc(F)c(N3CCN(c4ccc([N+](=O)[O-])s4)CC3)c(F)c2)C(=O)O1	Staphylococcus aureus	0.25
CC(=O)NC[C@H]1CN(c2ccc(N3CCN(C(=O)/C=C/c4ccc([N+](=O)[O-])o4)CC3)c(F)c2)C(=O)O1	Staphylococcus aureus	0.5
CC(=O)NC[C@H]1CN(c2ccc(N3CCN(C(C)c4ccc([N+](=O)[O-])o4)CC3)c(F)c2)C(=O)O1 (some centres not stated)	Staphylococcus aureus	1
CC(=O)NC[C@H]1CN(c2ccc(N3CCN(C(=O)c4ccc([N+](=O)[O-])o4)CC3)c(F)c2)C(=O)O1	Staphylococcus aureus	1
CC(=O)NC[C@H]1CN(c2ccc(N3CCN(c4ccc([N+](=O)[O-])s4)CC3)c(F)c2)C(=O)O1	Staphylococcus aureus	0.25
CC(=O)NC[C@H]1CN(c2ccc(N3CCN(c4ccc(C=O)s4)CC3)c(F)c2)C(=O)O1	Staphylococcus aureus	1

---

# Test system: Staphylococcus aureus
# protocol-text: Antibacterial activity against methicillin-resistant Staphylococcus aureus 562 infected orally dosed Swiss albino mouse after 7 days
# Type: functional
# run-parameters: po, 168 h
Classify: 1 when ED50 is strictly less than 8 mg/kg; -1 when ED50 is not.

compound	assigned-category
CC(=O)NC[C@H]1CN(c2ccc(N3CCN(C(=O)/C=C/c4ccc([N+](=O)[O-])o4)CC3)c(F)c2)C(=O)O1	-1
CC(=O)NC[C@H]1CN(c2ccc(N3CCN(C(=O)c4ccc([N+](=O)[O-])o4)CC3)c(F)c2)C(=O)O1	-1
CC(=O)NC[C@H]1CN(c2ccc(N3CCN(C(C)c4ccc([N+](=O)[O-])s4)CC3)c(F)c2)C(=O)O1 (some centres not stated)	-1
CC(=O)NC[C@H]1CN(c2ccc(N3CCOCC3)c(F)c2)C(=O)O1	1
CC(=O)NC[C@H]1CN(c2ccc(N3CCN(C(=O)c4ccc([N+](=O)[O-])s4)CC3)c(F)c2)C(=O)O1	-1
CC(=O)NC[C@H]1CN(c2ccc(N3CCN(C(=O)/C=C/c4ccc([N+](=O)[O-])s4)CC3)c(F)c2)C(=O)O1	-1
CC(=O)NC[C@H]1CN(c2cc(F)c(N3CCN(c4ccc([N+](=O)[O-])s4)CC3)c(F)c2)C(=O)O1	-1
CC(=O)NC[C@H]1CN(c2ccc(N3CCN(Cc4ccc([N+](=O)[O-])o4)CC3)c(F)c2)C(=O)O1.Cl [RANBEZOLID CHLORIDE]	1
CC(=O)NC[C@H]1CN(c2ccc(N3CCN(C(C)c4ccc([N+](=O)[O-])o4)CC3)c(F)c2)C(=O)O1 (some centres not stated)	-1
CC(=O)NC[C@H]1CN(c2ccc(N3CCN(c4ccc(C=O)s4)CC3)c(F)c2)C(=O)O1	-1
CC(=O)NC[C@H]1CN(c2ccc(N3CCN(Cc4ccc([N+](=O)[O-])s4)CC3)c(F)c2)C(=O)O1	-1
CC(=O)NC[C@H]1CN(c2ccc(N3CCN(c4ccc([N+](=O)[O-])s4)CC3)c(F)c2)C(=O)O1	-1

---

In this section we review reported MIC values for a set of compounds.
# System: Staphylococcus aureus
# protocol-text: Antibacterial activity against methicillin-resistant Staphylococcus aureus 33 after 24 hrs by agar dilution method
# Format: functional

compound	MIC, µg/mL
CC(=O)NC[C@H]1CN(c2ccc(N3CCN(c4ccc(C#N)s4)CC3)c(F)c2)C(=O)O1	2
CC(=O)NC[C@H]1CN(c2ccc(N3CCN(C(=O)c4ccc([N+](=O)[O-])s4)CC3)c(F)c2)C(=O)O1	0.06
CC(=O)NC[C@H]1CN(c2ccc(N3CCN(Cc4ccc([N+](=O)[O-])o4)CC3)c(F)c2)C(=O)O1.Cl [RANBEZOLID CHLORIDE]	2

---

# Test system: Staphylococcus aureus
# protocol-text: Antibacterial activity against Staphylococcus aureus ATCC 25923 after 24 hrs by agar dilution method
# Type: functional
# run-parameters: ATCC 25923, 24 h
measured-quantity: log10 MIC (log10 of the value in µg/mL)

compound	log10 MIC
CC(=O)NC[C@H]1CN(c2ccc(N3CCN(C(=O)/C=C/c4ccc([N+](=O)[O-])s4)CC3)c(F)c2)C(=O)O1	-0.30
CC(=O)NC[C@H]1CN(c2ccc(N3CCN(c4ccc([N+](=O)[O-])s4)CC3)cc2)C(=O)O1	0.30
CC(=O)NC[C@H]1CN(c2ccc(N3CCN(C(=O)c4ccc([N+](=O)[O-])s4)CC3)c(F)c2)C(=O)O1	-0.90
CC(=O)NC[C@H]1CN(c2ccc(N3CCN(C(C)c4ccc([N+](=O)[O-])s4)CC3)c(F)c2)C(=O)O1 (stereo partly drawn)	-0.30
CC(=O)NC[C@H]1CN(c2ccc(N3CCN(Cc4ccc([N+](=O)[O-])s4)CC3)c(F)c2)C(=O)O1	0.90
CC(=O)NC[C@H]1CN(c2ccc(N3CCN(c4ccc(C#N)s4)CC3)c(F)c2)C(=O)O1	0.60
CC(=O)NC[C@H]1CN(c2ccc(N3CCN(c4ccc([N+](=O)[O-])o4)CC3)c(F)c2)C(=O)O1	1.20
CC(=O)NC[C@H]1CN(c2ccc(N3CCN(Cc4ccc([N+](=O)[O-])o4)CC3)c(F)c2)C(=O)O1.Cl [RANBEZOLID CHLORIDE]	0.00

---

# Tested on: Staphylococcus aureus
# protocol-text: Antibacterial activity against methicillin-resistant Staphylococcus aureus 33 after 24 hrs by agar dilution method
# Assay type: functional

compound	MIC
CC(=O)NC[C@H]1CN(c2cc(F)c(N3CCN(c4ccc([N+](=O)[O-])s4)CC3)c(F)c2)C(=O)O1	0.25 µg/mL
CC(=O)NC[C@H]1CN(c2ccc(N3CCN(C(=O)/C=C/c4ccc([N+](=O)[O-])s4)CC3)c(F)c2)C(=O)O1	0.5 µg/mL
CC(=O)NC[C@H]1CN(c2ccc(N3CCN(C(=O)c4ccc([N+](=O)[O-])o4)CC3)c(F)c2)C(=O)O1	0.5 µg/mL
CC(=O)NC[C@H]1CN(c2ccc(N3CCN(c4ccc([N+](=O)[O-])o4)CC3)c(F)c2)C(=O)O1	8 µg/mL
CC(=O)NC[C@H]1CN(c2ccc(N3CCN(C(C)c4ccc([N+](=O)[O-])o4)CC3)c(F)c2)C(=O)O1 (stereo partly drawn)	1 µg/mL
CC(=O)NC[C@H]1CN(c2ccc(N3CCN(C(=O)/C=C/c4ccc([N+](=O)[O-])o4)CC3)c(F)c2)C(=O)O1	0.25 µg/mL
CC(=O)NC[C@H]1CN(c2ccc(N3CCN(c4ccc(C=O)s4)CC3)c(F)c2)C(=O)O1	0.5 µg/mL
CC(=O)NC[C@H]1CN(c2ccc(N3CCN(c4ccc([N+](=O)[O-])s4)CC3)cc2)C(=O)O1	1 µg/mL

---

In this section we review reported MIC values for a set of molecules.
# Tested on: Staphylococcus aureus
# protocol-text: Antibacterial activity against methicillin-resistant Staphylococcus aureus 33 after 24 hrs by agar dilution method
# Format: functional
measured-quantity: MIC (µg/mL)

molecule	result-value
CC(=O)NC[C@H]1CN(c2ccc(N3CCN(C(C)c4ccc([N+](=O)[O-])s4)CC3)c(F)c2)C(=O)O1 (some centres undefined)	0.5
CC(=O)NC[C@H]1CN(c2ccc(N3CCN(c4ccc([N+](=O)[O-])s4)CC3)c(F)c2)C(=O)O1	0.25
CC(=O)NC[C@H]1CN(c2ccc(N3CCN(Cc4ccc([N+](=O)[O-])s4)CC3)c(F)c2)C(=O)O1	8

---

In this section we review reported MIC values for a set of compounds.
# Test system: Enterococcus faecium
# protocol-text: Antibacterial activity against vancomycin-resistant Enterococcus faecium 6A after 24 hrs by agar dilution method
# Type: functional
measured-quantity: MIC

1. CC(=O)NC[C@H]1CN(c2ccc(N3CCN(c4ccc(C(C)=O)s4)CC3)c(F)c2)C(=O)O1 > 16 µg/mL
2. CN[C@H](CC(C)C)C(=O)N[C@H]1C(=O)N[C@@H](CC(N)=O)C(=O)N[C@H]2C(=O)N[C@H]3C(=O)N[C@H](C(=O)N[C@H](C(=O)O)c4cc(O)cc(O)c4-c4cc3ccc4O)[C@H](O)c3ccc(c(Cl)c3)Oc3cc2cc(c3O[C@@H]2O[C@H](CO)[C@@H](O)[C@H](O)[C@H]2O[C@H]2C[C@](C)(N)[C@H](O)[C@H](C)O2)Oc2ccc(cc2Cl)[C@H]1O > 16 µg/mL
3. CC(=O)NC[C@H]1CN(c2ccc(N3CCN(C(=O)/C=C/c4ccc([N+](=O)[O-])o4)CC3)c(F)c2)C(=O)O1 < 0.125 µg/mL
